test: small-molecule binders of probe aNOTCH3, primary screen, biochemical, small-molecule microarray, 635/667 nm fluorescence (AID 1120); settings: higher = more signal;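 note: probe is a biotin-tagged antibody raised against NOTCH3 rather than NOTCH3 protein; score merges spot fluorescence near 667 nm with spot signal to noise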
Binary call on composite z-score: yes (1) from 0.2 upward, no (0) beneath that.

COCCOC(=O)N1C(=O)[C@@]2(c3ccccc31)[C@H](C(=O)N1CCc3cc(OC)c(OC)cc3C1)[C@H]1C(=O)O[C@H](c3ccccc3)[C@H](c3ccccc3)N1[C@@H]2c1ccc(OCCO)cc1 = no (0)
CO[C@H]1O[C@H](CO)[C@@H](OC(=O)Nc2ccccc2)[C@H](OC(=O)Nc2ccccc2)[C@@H]1OC(=O)Nc1ccccc1 = yes (1)
COc1ccc(-c2cc3c(c(-c4ccc(Oc5ccccc5)cc4)n2)[Si](C(C)C)(C(C)C)OC3)cn1 = no (0)
O[C@@H](Cc1ccccc1)[C@H]1C2C=CCCC=C2CN1Cc1cccc(Cl)c1 (stereo partly drawn) = yes (1)
O=C1C2C=CC(C(O)CCc3ccccc3)N(Nc3ccccc3F)C2C(=O)N1c1ccccc1 (stereo not drawn) = yes (1)
O=C(CS)NCCCCCCNC(=O)[C@@H]1C[C@@H]2C(=O)NCC(=O)N2[C@@H]1c1cccc(OCCO)c1 = no (0)
C=CC[C@]1(C(=O)NCc2ccccc2)N=C(c2ccc(OCCCO)cc2)O[C@H]1c1ccccc1N=[N+]=[N-] = no (0)

API: the following record is the query input.
Problem: Answer whether composite z-score of C=C[C@H](OC)[C@@H](OC(=O)Nc1ccc(OC)cc1)c1ccc(O)c(F)c1 is greater than or equal to 0.2.
Solution: no (0)
